# targetDesc: UniProtKB Q16539
# Sequence (Q16539 whole entry): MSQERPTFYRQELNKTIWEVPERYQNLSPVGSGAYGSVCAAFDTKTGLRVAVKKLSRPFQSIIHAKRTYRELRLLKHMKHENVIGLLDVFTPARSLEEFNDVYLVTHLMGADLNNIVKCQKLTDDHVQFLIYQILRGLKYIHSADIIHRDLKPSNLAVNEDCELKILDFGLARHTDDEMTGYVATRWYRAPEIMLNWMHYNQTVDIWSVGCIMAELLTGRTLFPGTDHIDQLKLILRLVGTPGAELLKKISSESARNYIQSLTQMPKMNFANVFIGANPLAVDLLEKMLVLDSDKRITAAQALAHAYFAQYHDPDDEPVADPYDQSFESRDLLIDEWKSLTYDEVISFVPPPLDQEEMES
pIC50: −log10 of the molar value.
assayMetric: pIC50

[ask] State the recorded pIC50 for this entry: Cc1ccc(NC(=O)c2cc(F)cc(N3CCOCC3)c2)cc1Nc1cc(C(N)=O)nc(Cl)n1
[reply] ~7.52
